This listing pairs variants with measured self-cleavage.
B1: CPEB3 Ribozyme (parent)
chain: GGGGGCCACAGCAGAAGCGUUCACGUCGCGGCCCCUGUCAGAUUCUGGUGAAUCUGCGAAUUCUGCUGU

Variants of: B1
Assay: self-cleavage, relative activity (ratio to wild type); higher = more cleavage; co-transcriptional

variant_notation="C66A G68U" attribute_measured=self-cleavage reading=0.799

Q: I have this variant here, C39A A51G , and I need its recorded self-cleavage.
A: 0.802

Q: Given the entry A40U G56A , report its measured self-cleavage.
A: 0.818

Q: Field request: self-cleavage | item: A10U U61C
A: 0.781

Q: Item U46A A59C has what recorded self-cleavage?
A: 0.802

Q: Please report the recorded self-cleavage for U20G A23C .
A: 0.196

Q: // returns reported self-cleavage for input C34G U49A
A: 0.784

Q: Data request, read-out self-cleavage, for A13G C22G
A: 0.199
